# Test system: RERF-LC-KJ
# assay-overview: relative viability (nuclei count vs DMSO), 5 days (fraction); higher = more cells survive
# condition-info: first compound 0.05 µM
test-readout: relative viability

{"compound": "Nc1ccn([C@@H]2O[C@H](CO)[C@@H](O)[C@@H]2O)c(=O)n1 [Cytarabine] + COc1cc2c(Oc3ccc(NC(=O)C4(C(=O)Nc5ccc(F)cc5)CC4)cc3F)ccnc2cc1OCCCN1CCOCC1 [Foretinib] (partner 0.25 µM)", "test-readout": "relative viability", "experimental-result": 0.735}
{"compound": "Nc1ccn([C@@H]2O[C@H](CO)[C@@H](O)[C@@H]2O)c(=O)n1 [Cytarabine] + CC(=O)c1c(C)c2cnc(Nc3ccc(N4CCNCC4)cn3)nc2n(C2CCCC2)c1=O [Palbociclib] (partner 0.5 µM)", "test-readout": "relative viability", "experimental-result": 0.819}

====

# Tested on: ChaGo-K-1
# assay-overview: relative viability (nuclei count vs DMSO), 5 days (fraction); higher = more cells survive
# condition-info: first compound 0.006325 µM
test-readout: relative viability

{"molecule": "CC(=O)O[C@@]12CO[C@@H]1C[C@H](O)[C@@]1(C)C(=O)[C@H](O)C3=C(C)[C@@H](OC(=O)[C@H](O)[C@@H](NC(=O)OC(C)(C)C)c4ccccc4)C[C@@](O)([C@@H](OC(=O)c4ccccc4)[C@H]21)C3(C)C [Docetaxel] + NC(=O)Nc1cc(-c2cccc(F)c2)sc1C(=O)N[C@H]1CCCNC1 [AZD7762] (partner 0.2 µM)", "experimental-result": 0.27}

====

Property: relative viability; scope: individual compounds
# System: NCI-H23
# assay-overview: relative viability (nuclei count vs DMSO), 5 days (fraction); higher = more cells survive
# condition-info: first compound 4 µM
test-readout: relative viability

{"compound": "Cc1sc2c(c1C)C(c1ccc(Cl)cc1)=N[C@@H](CC(=O)OC(C)(C)C)c1nnc(C)n1-2 [JQ1] + CC(C)C[C@H](NC(=O)[C@H](Cc1ccccc1)NC(=O)c1cnccn1)B(O)O [Bortezomib] (partner 0.002 µM)", "experimental-result": 0.332}
{"compound": "Cc1sc2c(c1C)C(c1ccc(Cl)cc1)=N[C@@H](CC(=O)OC(C)(C)C)c1nnc(C)n1-2 [JQ1] + C[C@@H](Oc1cc(-c2cnn(C3CCNCC3)c2)cnc1N)c1c(Cl)ccc(F)c1Cl [Crizotinib] (partner 1 µM)", "experimental-result": 0.154}
{"compound": "Cc1sc2c(c1C)C(c1ccc(Cl)cc1)=N[C@@H](CC(=O)OC(C)(C)C)c1nnc(C)n1-2 [JQ1] + Nc1ncn([C@H]2C[C@H](O)[C@@H](CO)O2)c(=O)n1 [Decitabine] (partner 2 µM)", "experimental-result": 0.211}
{"compound": "Cc1sc2c(c1C)C(c1ccc(Cl)cc1)=N[C@@H](CC(=O)OC(C)(C)C)c1nnc(C)n1-2 [JQ1] + CCNC(=O)c1noc(-c2cc(C(C)C)c(O)cc2O)c1-c1ccc(CN2CCOCC2)cc1 [Luminespib] (partner 0.01 µM)", "experimental-result": 0.173}

====

# Test system: NCI-H1755
# assay-overview: relative viability (nuclei count vs DMSO), 5 days (fraction); higher = more cells survive
# condition-info: first compound 500 µM
Binarize relative viability at 0.2; below is 1.0, at or above is 0.0.

{"compound": "O=C(O)CCCCC(CCSCc1ccccc1)SCc1ccccc1 (configuration not stated) [CPI-613] + N=C(N)NC(=N)NCCc1ccccc1 [Phenformin] (partner 250 µM)", "discrete-label": 1.0}
{"compound": "O=C(O)CCCCC(CCSCc1ccccc1)SCc1ccccc1 (configuration not stated) [CPI-613] + COc1cc2c(Oc3ccc(NC(=O)C4(C(=O)Nc5ccc(F)cc5)CC4)cc3F)ccnc2cc1OCCCN1CCOCC1 [Foretinib] (partner 0.25 µM)", "discrete-label": 1.0}
{"compound": "O=C(O)CCCCC(CCSCc1ccccc1)SCc1ccccc1 (configuration not stated) [CPI-613] + CCNC(=O)c1noc(-c2cc(C(C)C)c(O)cc2O)c1-c1ccc(CN2CCOCC2)cc1 [Luminespib] (partner 0.01 µM)", "discrete-label": 1.0}
{"compound": "O=C(O)CCCCC(CCSCc1ccccc1)SCc1ccccc1 (configuration not stated) [CPI-613] + C[C@@H](Oc1cc(-c2cnn(C3CCNCC3)c2)cnc1N)c1c(Cl)ccc(F)c1Cl [Crizotinib] (partner 1 µM)", "discrete-label": 1.0}
{"compound": "O=C(O)CCCCC(CCSCc1ccccc1)SCc1ccccc1 (configuration not stated) [CPI-613] + Cc1cc(Nc2cc(N3CCN(C)CC3)nc(Sc3ccc(NC(=O)C4CC4)cc3)n2)n[nH]1 [Tozasertib] (partner 0.1 µM)", "discrete-label": 0.0}
{"compound": "O=C(O)CCCCC(CCSCc1ccccc1)SCc1ccccc1 (configuration not stated) [CPI-613] + CC(=O)Nc1cccc(-n2c(=O)n(C3CC3)c(=O)c3c(Nc4ccc(I)cc4F)n(C)c(=O)c(C)c32)c1 [Trametinib] (partner 0.02 µM)", "discrete-label": 0.0}
{"compound": "O=C(O)CCCCC(CCSCc1ccccc1)SCc1ccccc1 (configuration not stated) [CPI-613] + C[C@]1(O)C[C@@H](c2nc(-c3ccc4ccc(-c5ccccc5)nc4c3)c3c(N)nccn32)C1 [Linsitinib] (partner 1 µM)", "discrete-label": 1.0}
